The following molecules each carry a recorded pIC50 for ErbB2 WT (Homo sapiens (Human)).
Kindly note that pIC50 refers to -log10 of the concentration in mol/L and answer with the value alone.

Please review the entries below; each comes with its answer.
Clc1cc(Nc2ncnc3cnc(N4C[C@@H]5[C@H](C4)[C@@H]4CC[C@H]5O4)nc23)ccc1Oc1ccn2ncnc2c1 [Example 399] ... 7.54
Cc1cc(Nc2ncnc3cnc(N(C)C4CCCOC4)nc23)ccc1Oc1ccc2c(c1)ncn2C (centres unmarked) [Example 473] ... 7.70
CC(=O)N1CC2CC(C1)N2c1ncc2ncnc(Nc3ccc(Oc4ccc5c(c4)ncn5C)c(C)c3)c2n1 [Example 23] ... 5.87
Cc1cc(Nc2ncnc3cnc(NCC(C)(C)C#N)nc23)ccc1Oc1ccc2c(c1)ncn2C [Example 200] ... 7.28
Cc1cc(Nc2ncnc3cnc(N4CCO[C@H]5C[C@H]54)nc23)ccc1Oc1ccc2c(c1)ncn2C (single isomer, unassigned) [Example 60b] ... 7.73
CCn1cnc2cc(Oc3ccc(Nc4ncnc5cnc(N6CCOCC6)nc45)cc3C)ccc21 [Example 75, 2,2,2-trifluoroacetate] ... 6.85
Cc1cc(Nc2ncnc3cnc(N4CC[C@H]4C(F)F)nc23)ccc1Oc1ccc2c(c1)ncn2C [Example 388] ... 7.05
Cc1cc(Nc2ncnc3cnc(N(C)CC4COC4)nc23)ccc1Oc1ccc2c(c1)ncn2C [Example 402] ... 7.83

Case Cc1cc(Nc2ncnc3cnc(N4CCC45COC5)nc23)ccc1Oc1ccc2c(c1)ncn2C [Example 27] , ErbB2 WT (Homo sapiens (Human)), pIC50 recorded as 7.29

pIC50 of FC(F)(F)[C@H]1CN(c2ncc3ncnc(Nc4ccc(Oc5ccn6ncnc6c5)c(Cl)c4)c3n2)CCN1 [Example 429] , assay on ErbB2 WT (Homo sapiens (Human)), is 7.40

Result for Cc1cc(Nc2ncnc3cnc(N4CCOC[C@@H]4C)nc23)ccc1Oc1ccc2c(c1)ncn2C [Example 258] , tested on ErbB2 WT (Homo sapiens (Human)), pIC50: 6.75
